- EXPERIMENTAL DETAILS: CEETOX_H295R_ANDR: CeeTox H295R High-throughput Steroidogenesis Assay for Androstenedione (ANDR) (AID 2283436);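 further: human H295R adrenal cells exposed for 48 h with androstenedione measured in medium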
- CONDITION LABEL: actives raise or lower the signal
Activity calls are given as the source filed them. How the source made its calls: active means hit-call score of the fitted dose curve at least 0.9, where 1 is the maximum; inactive means score below 0.9.
MEASUREMENT TYPE: AC50

// below: answered molecules
smiles_notation=Cc1c2ccccc2c(C)c2c1ccc1ccccc12 reported_measurement=inactive
smiles_notation=CCCCCCCCN(C)CCCCCCCC reported_measurement=inactive
smiles_notation=O=c1c(-c2ccc(O)cc2)coc2cc(O)cc(O)c12 reported_measurement="14.1 µM (active)"
smiles_notation=NC(=O)c1nc(-c2cccc(-c3cc(F)ccc3OCC(F)(F)C(F)(F)F)c2)n[nH]1 reported_measurement=inactive
smiles_notation=O=C(Nc1ccc(Cl)cc1)Nc1ccc(Cl)c(Cl)c1 reported_measurement=inactive

Notebook: `O=C(O)Cn1c(=O)n(Cc2ccc(Br)cc2F)c(=O)c2ccc(Cl)cc21` , AC50 read as inactive

---

- Read-out: Human Leukocyte Antigen - DR isotype (HLADR), HLA-DRA (gene 3122)
- EXPERIMENTAL DETAILS: BSK_BE3C_HLADR: BioMAP Diversity Plus: BE3C Assay for Human Leukocyte Antigen - DR isotype (HLADR) Biomarker Activity (AID 2283032)
- CONDITION LABEL: primary human bronchial epithelial cells; actives raise or lower the signal
Active and inactive are the calls of the source. How the source made its calls: active means hit-call score of the fitted dose curve at least 0.9, where 1 is the maximum; inactive means score below 0.9.
MEASUREMENT TYPE: AC50

Previously resolved entries follow.
molecule=Oc1ccccc1 reported_measurement=inactive
molecule="COCC(C)OCC(C)OCC(C)O (stereo not drawn)" reported_measurement=inactive
molecule=CN(C)C(=O)C1(N2CCCCC2)CCN(CC[C@@]2(c3ccc(Cl)c(Cl)c3)CN(C(=O)c3ccccc3)CCO2)CC1 reported_measurement="14.4 µM (active)"
molecule=CCCCCCCCCC(=O)O reported_measurement=inactive
molecule=Cc1cc2c(cc1C(F)(F)F)N(C(=O)Nc1ccc(Oc3cccnc3C)nc1)CC2 reported_measurement="5.03 µM (active)"
molecule="CC(O)CC(C)(C)O (stereo not drawn)" reported_measurement=inactive
molecule=O=c1c(-c2ccc(O)cc2)coc2cc(O)cc(O)c12 reported_measurement=inactive
molecule=Cc1cc(F)ccc1-c1cc(N2CC[C@@H](O)[C@H]2CO)ncc1N(C)C(=O)C(C)(C)c1cc(C(F)(F)F)cc(C(F)(F)F)c1 reported_measurement="12.8 µM (active)"

Batch: AC50 for all items listed.
1. Cc1c2ccccc2c(C)c2c1ccc1ccccc12
2. CC(C)(O)c1ccc(CNC(=O)c2cccnc2Oc2ccc3nonc3c2)cc1
3. CCCCCCCC[Si](OCC)(OCC)OCC
4. COc1ccc2cc(S(=O)(=O)N[C@H](CC(=O)N[C@H](Cc3ccc(CN4[C@H](C)CCC[C@@H]4C)cc3)C(=O)N(C)C(C)C)c3ccc4c(c3)OCO4)ccc2c1

Found:
1. inactive
2. inactive
3. inactive
4. 32.8 µM (active)

Hi, could you look up AC50 for each item in my list?
1. c1ccc2n[nH]nc2c1
2. O=C(O)c1ccccc1-n1cc(C(=O)O)c(=O)c2cc(Nc3c(F)cc(F)cc3Cl)c(Cl)cc21
3. CCOC(=O)O[C@H](C)OC(=O)c1ccc2c(c1)cc(C(=O)NC1CCN(C(C)C)CC1)n2Cc1cc(-c2ccc(Cl)s2)on1
4. CCCCOC(=O)CC(CC(=O)OCCCC)(OC(C)=O)C(=O)OCCCC
5. CCCCCCCCCCCC[N+](C)(C)C
6. CC[C@H](NC(=O)c1cc(F)ccc1NS(=O)(=O)c1cccc2cccnc12)c1ccccc1
7. CCCCCCCCCCCCO
8. CCCCOC(=O)c1ccc(O)cc1

Found:
["inactive", "inactive", "10.7 µM (active)", "20 µM (active)", "28.3 µM (active)", "inactive", "inactive", "inactive"]

# return AC50 for each item in the list
1. CC(C)(C)c1cc(/C=C2\SC(N)=NC2=O)cc(C(C)(C)C)c1O
2. CC1=CC(=O)/C(=C(/C)O)C(=O)O1
3. O=c1[nH]sc2ccccc12

Found:
1. 7.46 µM (active)
2. inactive
3. 28.1 µM (active)

---

- EXPERIMENTAL DETAILS: APR_HepG2_MitoticArrest_72hr: Apredica 72-hour HepG2 Assay for Mitotic Arrest (AID 2282918)
- CONDITION LABEL: high-content imaging, actives raise or lower the signal
Activity calls are given as the source filed them. Rule for the calls: active = hit-call score of the fitted dose curve at least 0.9, where 1 is the maximum; inactive = score below 0.9.
Answer with one of the outcomes given here: y for active, n for inactive

molecule=O=CCCCC=O category_label=n
molecule=CN(C[C@@H](CC[N+]12CCC(C3CCCCC3)(CC1)CC2)c1ccc(Cl)c(Cl)c1)C(=O)c1cc(C(F)(F)F)cc(C(F)(F)F)c1 category_label=y
molecule=Cc1ccc(C(C)C)cc1 category_label=n
molecule=O=C(O)c1ccccc1C(=O)OCc1ccccc1 category_label=n
molecule=CC(C)(c1cc(Br)c(O)c(Br)c1)c1cc(Br)c(O)c(Br)c1 category_label=y

Lookup: Could you kindly confirm the outcome this assay logged for `O=C=NCCCCCCN=C=O` ?
Found: n

Lookup: Returns: the outcome recorded for `CN(C)c1ccc(C(=C2C=CC(=[N+](C)C)C=C2)c2ccc(N(C)C)cc2)cc1` in this assay.
Found: y

Lookup: Dear all, I need the recorded test outcome for COCC(C)OCC(C)OCC(C)O (configuration not stated) , thank you.
Found: n

Lookup: Dear colleague, could you share the recorded outcome for `Cc1cccc2ccccc12` when you have a moment?
Found: n

Lookup: In this assay, the call recorded for `O=C(O)Cc1cc(I)c(Oc2ccc(O)c(I)c2)c(I)c1` was what?
Found: n

Lookup: Just curious, what result did `C[C@]12CC[C@@H]3c4ccc(O)cc4CC[C@H]3[C@@H]1CCC2=O` get here?
Found: n

Lookup: # lookup: test call for `CCCCOC(=O)c1ccc(O)cc1`
Found: n

---

- Read-out: Cyclin D1 (CCND1), CCND1 (gene 595)
- EXPERIMENTAL DETAILS: LTEA_HepaRG_CCND1: Life Technologies and Expression Analysis (LTEA) Assay for Cyclin D1 (CCND1) using HepaRG (AID 2283451)
- CONDITION LABEL: mRNA level, 48 h; actives raise or lower the signal
Calls of active or inactive are those of the source. Rule for the calls: active = hit-call score of the fitted dose curve at least 0.9, where 1 is the maximum; inactive = score below 0.9.
Bench note: report the call from 1.0 = active, 0.0 = inactive

These recorded examples may help you get a feel for the data.
compound=COc1cc(C(=O)NC2CCN(C)CC2)ccc1Nc1ncc2c(n1)N(C1CCCC1)CC(F)(F)C(=O)N2C category_label=1.0
compound=O=c1ccc2ccccc2o1 category_label=0.0
compound=CCN(Cc1cccnc1)C(=O)c1cccc(Cl)c1[C@]1(C)C(=O)N(Cc2ccc(OC)cc2OC)c2ccc(Cl)cc21 category_label=0.0
compound=COc1cccc([C@H](O)C2CCN(CCc3ccc(F)cc3)CC2)c1OC category_label=0.0
compound=CCCCCCCC[Si](OCC)(OCC)OCC category_label=0.0

Lookup: // return assay outcome for `O=c1[nH]sc2ccccc12`
Found: 0.0

Lookup: Dear colleague, could you share the recorded outcome for `CC1(C)NC(=O)N(c2ccc([N+](=O)[O-])c(C(F)(F)F)c2)C1=O` when you have a moment?
Found: 0.0

Lookup: GET /call?item= `Clc1cc(Cl)c2c(c1)N=C1CCCCCN1C2` returns the recorded outcome of this test.
Found: 0.0

Lookup: Which outcome was entered for the compound `Cc1ccc(C(C)C)cc1` in this test?
Found: 0.0

Lookup: Please state the recorded outcome for this compound: `CCCCCCCCOC(=O)c1cc(O)c(O)c(O)c1`
Found: 0.0

Lookup: Assay outcome for `c1ccc2ccccc2c1` : what was it?
Found: 0.0

Lookup: GET /call?item= `CCCOC(=O)c1cc(O)c(O)c(O)c1` returns the recorded outcome of this test.
Found: 0.0

Lookup: In this assay, the call recorded for `CCOC(=O)O[C@H](C)OC(=O)c1ccc2c(c1)cc(C(=O)NC1CCN(C(C)C)CC1)n2Cc1cc(-c2ccc(Cl)s2)on1` was what?
Found: 0.0

Lookup: Record lookup: outcome of this test for `CC(C)(C)c1cc(/C=C2\SC(N)=NC2=O)cc(C(C)(C)C)c1O` ?
Found: 1.0

---

- Read-out: Monokine induced gamma interferon (MIG), CXCL9 (gene 4283)
- EXPERIMENTAL DETAILS: BSK_CASM3C_MIG: BioMAP Diversity Plus: CASM3C Assay for Monokine induced gamma interferon (MIG) Biomarker Activity (AID 2283048);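 further: MIG protein level measured by ELISA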
- CONDITION LABEL: primary human coronary artery smooth muscle cells; actives raise or lower the signal
The source made the active and inactive calls. The calls were made as follows: active = hit-call score of the fitted dose curve at least 0.9, where 1 is the maximum; inactive = score below 0.9.
Please state which outcome applies, choosing from YES = active, NO = inactive

Use these answered entries as a reference point.
smiles_notation=CCCCOC(=O)c1ccc(O)cc1 category_label=NO
smiles_notation=Cc1ncc(CO)c(CO)c1O category_label=NO
smiles_notation=CC(C)(C)c1cc(/C=C2\SC(N)=NC2=O)cc(C(C)(C)C)c1O category_label=YES
smiles_notation=O=C(O)c1ccccc1C(=O)OCc1ccccc1 category_label=NO
smiles_notation=CCO[Si](CCCNC(N)=O)(OCC)OCC category_label=NO
smiles_notation=CN(C)c1ccc(C(=C2C=CC(=[N+](C)C)C=C2)c2ccc(N(C)C)cc2)cc1 category_label=YES
smiles_notation=CCCCCCCCN(C)CCCCCCCC category_label=NO
smiles_notation=CC/C(=C(/CC)c1ccc(O)cc1)c1ccc(O)cc1 category_label=NO

Lookup: Which result was noted for this molecule in the test: `CN1C(=O)CC[C@H]1c1cccnc1`
Found: NO

Lookup: Query: recorded result category for `CC1(C)NC(=O)N(c2ccc([N+](=O)[O-])c(C(F)(F)F)c2)C1=O` in this test
Found: NO

Data origin, for the record: PubChem BioAssay (EPA / NIEHS)
